- SYSTEM_TESTED: Recombinant human Ku heterodimer (Homo sapiens, UniProt P12956+P13010)
- Construct: made in house; host or cells: insect cells infected with recombinant baculovirus
- Sequence (P12956 whole entry): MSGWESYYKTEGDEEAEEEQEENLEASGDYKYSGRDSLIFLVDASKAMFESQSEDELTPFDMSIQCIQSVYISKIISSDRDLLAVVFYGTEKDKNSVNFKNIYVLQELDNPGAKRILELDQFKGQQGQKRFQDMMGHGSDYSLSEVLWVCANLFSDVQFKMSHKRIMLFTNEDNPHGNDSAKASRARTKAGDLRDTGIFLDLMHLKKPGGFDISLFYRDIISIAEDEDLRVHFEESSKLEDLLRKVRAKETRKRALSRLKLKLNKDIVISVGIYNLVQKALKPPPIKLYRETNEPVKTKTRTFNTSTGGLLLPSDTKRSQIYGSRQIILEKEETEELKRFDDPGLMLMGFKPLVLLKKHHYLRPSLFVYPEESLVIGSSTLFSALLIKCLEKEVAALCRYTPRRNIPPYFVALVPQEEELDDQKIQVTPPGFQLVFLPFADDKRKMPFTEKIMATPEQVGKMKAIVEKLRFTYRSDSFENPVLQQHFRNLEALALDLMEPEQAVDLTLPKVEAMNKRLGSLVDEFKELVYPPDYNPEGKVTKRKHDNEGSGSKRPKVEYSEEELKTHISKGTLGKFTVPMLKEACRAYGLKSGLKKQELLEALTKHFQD
- Sequence (P13010 whole entry): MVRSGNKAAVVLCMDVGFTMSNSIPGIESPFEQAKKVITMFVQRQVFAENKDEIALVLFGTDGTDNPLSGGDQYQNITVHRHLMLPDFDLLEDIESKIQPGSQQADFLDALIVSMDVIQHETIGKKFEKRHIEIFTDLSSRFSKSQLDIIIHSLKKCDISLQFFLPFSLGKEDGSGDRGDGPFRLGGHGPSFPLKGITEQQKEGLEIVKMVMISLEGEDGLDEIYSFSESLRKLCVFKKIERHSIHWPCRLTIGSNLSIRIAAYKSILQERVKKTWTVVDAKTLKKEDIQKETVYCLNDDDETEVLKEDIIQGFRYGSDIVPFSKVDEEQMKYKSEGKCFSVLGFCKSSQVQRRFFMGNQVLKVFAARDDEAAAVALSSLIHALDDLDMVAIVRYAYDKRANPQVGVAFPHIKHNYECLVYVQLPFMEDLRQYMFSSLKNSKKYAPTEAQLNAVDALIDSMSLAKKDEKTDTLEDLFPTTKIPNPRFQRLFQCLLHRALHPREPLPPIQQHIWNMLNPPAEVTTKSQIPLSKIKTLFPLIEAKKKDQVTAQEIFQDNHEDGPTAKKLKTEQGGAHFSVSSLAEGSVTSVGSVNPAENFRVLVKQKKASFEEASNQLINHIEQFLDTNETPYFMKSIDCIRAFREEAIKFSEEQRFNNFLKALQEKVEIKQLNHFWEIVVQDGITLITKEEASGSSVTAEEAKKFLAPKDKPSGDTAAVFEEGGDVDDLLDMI
- ASSAY_NAME: Ku-DNA binding assay
- EXPERIMENTAL_CONDITIONS: Table 2, synthesized derivatives; several values in a cell = separate determinations; read-out: IC50
pIC50: −log10 of the molar value.
MEASURED_PROPERTY: pIC50

INSERT INTO assay_data (compound, result) VALUES
  ('COc1cccc(NC(=O)c2cc(-c3ccc(CC4C(=O)N(c5cccc(-c6nnn[nH]6)c5)N=C4C)o3)ccc2Cl)c1 (stereo not shown)', 4.89),
  ('CC1=NN(c2cccc(C(=O)O)c2)C(=O)/C1=C\c1ccc(-c2ccc(Cl)c(C(=O)O)c2)s1', 4.82);

I: CC1=NN(c2cccc(C(=O)O)c2)C(=O)C1Cc1ccc(-c2ccc(Cl)c(C(=O)NCC3CC3)c2)s1 (stereo not shown)
II: COc1ccc(NC(=O)c2cc(-c3ccc(CC4C(=O)N(c5cccc(C(=O)O)c5)N=C4C)o3)ccc2Cl)cc1OC (stereo not shown)
Smaller pIC50 value? Options are I and II Returns: label corresponding to the selected item.
I
(I: 4.92, II: 5.12)

----------
- SYSTEM_TESTED: Recombinant human Ku heterodimer (Homo sapiens, UniProt P12956+P13010)
- Construct: made in house; host or cells: insect cells infected with recombinant baculovirus
- ASSAY_NAME: Ku-DNA binding assay
- EXPERIMENTAL_CONDITIONS: Table 2, synthesized derivatives; several values in a cell = separate determinations; read-out: IC50
pIC50: −log10 of the molar value.
MEASURED_PROPERTY: pIC50

INSERT INTO assay_data (compound, result) VALUES
  ('COc1cccc(NC(=O)c2cc(-c3ccc(/C=C4\C(=O)N(c5ccc(S(N)(=O)=O)cc5)N=C4C)o3)ccc2Cl)c1', 4.70),
  ('COc1cccc(NC(=O)c2ccc(CC3C(=O)N(c4cccc(C(=O)O)c4)N=C3C)o2)c1 (stereo not shown)', 4.96),
  ('COc1cccc(NC(=O)c2cc(-c3ccc(/C=C4\C(=O)N(c5cccc(C(=O)O)c5)N=C4C)s3)ccc2Cl)c1', 4.74),
  ('COc1cccc(NC(=O)c2cc(-c3ccc(CC4C(=O)N(c5cccc(C(=O)O)c5)N=C4C)s3)ccc2Cl)c1 (stereo not shown)', 5.15),
  ('CCOC(=O)c1cccc(N2N=C(C)C(Cc3ccc(-c4ccc(Cl)c(C(=O)Nc5cccc(OC)c5)c4)o3)C2=O)c1 (stereo not shown)', 5.52),
  ('CC1=NN(c2cccc(C(=O)O)c2)C(=O)C1Cc1ccc(-c2ccc(Cl)c(C(=O)NCc3ccc(F)cc3)c2)o1 (stereo not shown)', 5.10);

1: CCOC(=O)c1cccc(N2N=C(C)/C(=C/c3ccc(-c4ccc(Cl)c(C(=O)Nc5cccc(OC)c5)c4)o3)C2=O)c1
2: CC1=NN(c2ccc(C(=O)O)cc2)C(=O)/C1=C\c1ccc(-c2ccc(Cl)c(C(=O)O)c2)s1
Higher pIC50: 1 or 2 ? To answer, give the label that identifies your chosen option.
1
(1: 5.52, 2: 5.22)

1: CC1=NN(c2cccc(C(=O)O)c2)C(=O)/C1=C\c1ccc(-c2ccc(Cl)c(C(=O)NCc3ccccc3)c2)o1
2: COc1cccc(NC(=O)c2cc(-c3ccc(/C=C4\C(=O)N(c5cccc(-c6nnn[nH]6)c5)N=C4C)o3)ccc2Cl)c1
Dear colleague, could you let me know whether 1 or 2 has the lower recorded pIC50? Thanks. Your choice should be expressed through its label.
1

a: CC1=NN(c2cccc(C(=O)O)c2)C(=O)C1Cc1ccc(-c2ccc(Cl)c(C(=O)NCC3CC3)c2)o1 (stereo not shown)
b: CC1=NN(c2ccc(S(N)(=O)=O)cc2)C(=O)/C1=C\c1ccc(-c2ccc(Cl)c(C(=O)NCC3CC3)c2)o1
Lower value of pIC50 belongs to which: a or b ? Indicate your choice by writing its label.
b

----------
- SYSTEM_TESTED: Recombinant human Ku heterodimer (Homo sapiens, UniProt P12956+P13010)
- Construct: made in house; host or cells: insect cells infected with recombinant baculovirus
- ASSAY_NAME: Ku-DNA binding assay
- EXPERIMENTAL_CONDITIONS: Table 1, purchased second generation inhibitors; several values in a cell = separate determinations; read-out: IC50
pIC50: −log10 of the molar value.
MEASURED_PROPERTY: pIC50

a: COc1cc([N+](=O)[O-])ccc1-c1ccc(/C=C2\C(=O)N(c3cccc(C(=O)O)c3)N=C2C)o1 [compound 0814, reference compound]
b: CCCCOC(=O)c1cc(-c2ccc(/C=C3\C(=O)N(c4ccc(Cl)c(C(=O)O)c4)N=C3C)o2)ccc1Cl [compound 0530, reference compound]
c: CC1=NN(c2cccc(C(=O)O)c2)C(=O)/C1=C\c1ccc(-c2ccccc2C(=O)O)o1 [compound 0949, reference compound]
List the items above again, this time ordered by increasing pIC50. Answer by naming the labels in the order asked.
a, c, b

----------
- SYSTEM_TESTED: Recombinant human Ku heterodimer (Homo sapiens, UniProt P12956+P13010)
- Construct: made in house; host or cells: insect cells infected with recombinant baculovirus
- ASSAY_NAME: Ku-DNA binding assay
- EXPERIMENTAL_CONDITIONS: Table 2, synthesized derivatives; several values in a cell = separate determinations; read-out: IC50
MEASURED_PROPERTY: IC50 (µM)

INSERT INTO results (molecule, measured_property, result) VALUES
  ('CC1=NN(c2cccc(C(=O)O)c2)C(=O)/C1=C\c1ccc(-c2ccc(Cl)c(C(=O)NCC3CC3)c2)s1 [NG-03-226]', 'IC50', 7),
  ('COc1cccc(NC(=O)c2cc(-c3ccc(CC4C(=O)N(c5ccc(C(=O)O)cc5)N=C4C)s3)ccc2Cl)c1 (stereo not shown) [NG-03-238]', 'IC50', 14);

A: COc1ccc(NC(=O)c2cc(-c3ccc(/C=C4\C(=O)N(c5cccc(C(=O)O)c5)N=C4C)o3)ccc2Cl)cc1OC [NG-03-189]
B: CCOC(=O)c1ccc(N2N=C(C)/C(=C/c3ccc(-c4ccc(Cl)c(C(=O)Nc5cccc(OC)c5)c4)s3)C2=O)cc1 [NG-03-235]
Select one: A or B . Criterion: greater recorded IC50. Output the label that corresponds to your choice.
A

----------
- SYSTEM_TESTED: Recombinant human Ku heterodimer (Homo sapiens, UniProt P12956+P13010)
- Construct: made in house; host or cells: insect cells infected with recombinant baculovirus
- ASSAY_NAME: Ku-DNA binding assay
- EXPERIMENTAL_CONDITIONS: Table 1, purchased second generation inhibitors; several values in a cell = separate determinations; read-out: IC50
MEASURED_PROPERTY: IC50 (µM)

INSERT INTO results (compound, result_unit, result) VALUES
  ('CC1=NN(c2ccc(Cl)c(C(=O)O)c2)C(=O)/C1=C\c1ccc(-c2ccc3c(c2)C(=O)OC3)o1 [compound 4770, reference compound]', 'µM', 21.8),
  ('CCOC(=O)c1cccc(-c2ccc(/C=C3\C(=O)N(c4cccc(C(=O)O)c4)N=C3C)o2)c1 [compound 2714, reference compound]', 'µM', 9.1);

1: CC1=NN(c2cccc(C(=O)O)c2)C(=O)/C1=C\c1ccc(-c2ccc(C(=O)O)cc2)o1 [compound 2513, reference compound]
2: CC1=NN(c2cccc(C(=O)O)c2)C(=O)/C1=C\c1ccc(-c2cccc(C(=O)O)c2)o1 [compound 0803, reference compound]
3: C#CCOC(=O)c1cccc(-c2ccc(/C=C3\C(=O)N(c4ccc(Cl)c(C(=O)O)c4)N=C3C)o2)c1 [compound 7026, reference compound]
4: CC1=NN(c2cccc(C(=O)O)c2)C(=O)/C1=C\c1ccc(-c2ccc(Cl)c(C(=O)OCc3ccccc3Cl)c2)o1 [compound 2249, reference compound]
Sort the compounds on IC50; start with the lowest figure. The response must list the labels following the requested ordering.
4, 3, 2, 1
